Target: human FAAH (hFAAH) (Homo sapiens)
Construct: purchased Cayman Item # 10005196
Assay: FAAH enzyme inhibition assay (Cayman inhibitor screening kit, AMC-arachidonoyl amide, fluorescence)
Type: biochemical
Settings: in vitro, up to 100 μM

{"compound": "CCCCN(CCCC)C(=S)SSC(=S)N(CCCC)CCCC [2c]", "FAAH inhibitory activity (in words)": "no inhibition"}
{"compound": "CC(C)CN(CC(C)C)C(=S)SSC(=S)N(CC(C)C)CC(C)C [2d]", "FAAH inhibitory activity (in words)": "no inhibition"}

----------
Biological target: human MAGL (hMAGL) (Homo sapiens)
Construct: purchased Reaction Biology Corp
Sequence (Q99685 1-303): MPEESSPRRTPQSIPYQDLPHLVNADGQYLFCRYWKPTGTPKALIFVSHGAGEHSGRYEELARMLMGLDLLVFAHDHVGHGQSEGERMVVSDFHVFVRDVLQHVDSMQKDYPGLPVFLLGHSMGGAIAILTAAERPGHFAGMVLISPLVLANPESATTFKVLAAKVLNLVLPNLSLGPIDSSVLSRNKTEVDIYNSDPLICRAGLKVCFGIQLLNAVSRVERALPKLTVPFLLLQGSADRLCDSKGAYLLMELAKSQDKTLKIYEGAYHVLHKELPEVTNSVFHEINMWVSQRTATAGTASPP
Test: MAGL enzyme inhibition assay (4-nitrophenylacetate hydrolysis, absorbance 405 nm)
Type: biochemical
Protocol: All of the tested compounds were prepared as 10 mM stock solutions in DMSO. […] The plate was mixed for 30 s and incubated at room temperature for 30 min.
measuredAttribute: IC50 (µM)
Provide the reading as a plain figure in µM.

Fill blank: measured IC50 of the compound S=C(SSC(=S)N(Cc1ccccc1)Cc1ccccc1)N(Cc1ccccc1)Cc1ccccc1 is ____.
3.58

----------
Target: human FAAH (hFAAH) (Homo sapiens, UniProt O00519)
Construct: purchased Cayman Item # 10005196
Sequence (O00519 whole entry): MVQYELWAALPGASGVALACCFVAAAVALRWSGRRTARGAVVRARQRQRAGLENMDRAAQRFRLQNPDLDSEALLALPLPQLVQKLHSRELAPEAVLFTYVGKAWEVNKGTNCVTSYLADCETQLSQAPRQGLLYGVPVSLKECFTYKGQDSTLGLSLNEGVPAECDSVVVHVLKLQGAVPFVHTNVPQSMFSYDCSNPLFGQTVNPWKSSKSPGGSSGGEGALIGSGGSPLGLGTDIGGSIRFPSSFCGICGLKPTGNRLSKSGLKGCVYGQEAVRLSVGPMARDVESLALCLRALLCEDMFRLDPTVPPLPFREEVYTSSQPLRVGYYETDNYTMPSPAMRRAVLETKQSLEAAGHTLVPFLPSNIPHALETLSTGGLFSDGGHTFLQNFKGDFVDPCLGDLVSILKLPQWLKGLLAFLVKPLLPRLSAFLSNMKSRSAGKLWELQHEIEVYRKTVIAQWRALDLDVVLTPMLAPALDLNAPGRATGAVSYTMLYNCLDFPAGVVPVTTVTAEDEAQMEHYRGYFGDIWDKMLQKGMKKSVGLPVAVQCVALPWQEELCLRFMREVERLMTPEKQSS
Assay: FAAH enzyme inhibition assay (Cayman inhibitor screening kit, AMC-arachidonoyl amide, fluorescence)
Type: biochemical
Conditions: read-out: IC50 (µM) ± SE (hFAAH)
measuredAttribute: IC50 (µM)
Provide the reading as a plain figure in µM.

{"compound": "CCN(CCC(=O)O)C(=S)SSC(=S)N(CC)CCC(=O)O [2f]", "number": 12.8}
{"compound": "CCN(CCO)C(=S)SSC(=S)N(CC)CCO [2e]", "number": 25.4}
{"compound": "CCN(Cc1ccc(O)cc1)C(=S)SSC(=S)N(CC)Cc1ccc(O)cc1 [2j]", "number": 38.3}

Continue with the next compound.
Fill blank: measured IC50 of the compound CCOC(=O)CCN(CC)C(=S)SSC(=S)N(CC)CCC(=O)OCC [2g] is ____.
10

----------
Molecular target: human MAGL (hMAGL) (Homo sapiens, UniProt Q99685)
Construct: purchased Reaction Biology Corp
Test: MAGL enzyme inhibition assay (4-nitrophenylacetate hydrolysis, absorbance 405 nm); on IC50 (µM) ± SE (hMAGL): 250 µM 4-nitrophenylacetate
Format: biochemical
Settings: read-out: IC50 (µM) ± SE (hMAGL)
measuredAttribute: IC50 (µM)
Provide the reading as a plain figure in µM.

Fill blank: measured IC50 of the compound CCN(Cc1ccc(O)cc1)C(=S)SSC(=S)N(CC)Cc1ccc(O)cc1 is ____.
3.71

Follow-up entry: CC(C)N(C(=S)SSC(=S)N(C(C)C)C(C)C)C(C)C
1.89

Follow-up entry: CCN(CCC(=O)O)C(=S)SSC(=S)N(CC)CCC(=O)O
0.87

Follow-up entry: CCN(CCO)C(=S)SSC(=S)N(CC)CCO
0.72

Follow-up entry: CCN(Cc1ccc(F)cc1)C(=S)SSC(=S)N(CC)Cc1ccc(F)cc1
3.58

Follow-up entry: CCOC(=O)CCN(CC)C(=S)SSC(=S)N(CC)CCC(=O)OCC
3.53

----------
Listed here: items and their measured IC50.
Target: human MAGL (hMAGL) (Homo sapiens)
Construct: purchased Reaction Biology Corp
Experiment: MAGL enzyme inhibition assay (4-nitrophenylacetate hydrolysis, absorbance 405 nm); on IC50 (µM) ± SE (hMAGL): 250 µM 4-nitrophenylacetate
Assay type: biochemical
Conditions: read-out: IC50 (µM) ± SE (hMAGL)

Solved cases below.
{"molecule": "CCN(Cc1ccc(C(=O)O)cc1)C(=S)SSC(=S)N(CC)Cc1ccc(C(=O)O)cc1", "result": "22.6 µM"}
{"molecule": "CCOC(=O)c1ccc(CN(CC)C(=S)SSC(=S)N(CC)Cc2ccc(C(=O)OCC)cc2)cc1", "result": "5.03 µM"}
{"molecule": "CCN(Cc1ccccc1)C(=S)SSC(=S)N(CC)Cc1ccccc1", "result": "5.53 µM"}
{"molecule": "CCN(CC)C(=S)SSC(=S)N(CC)CC [2a, Disulfiram, reference compound]", "result": "0.95 µM"}
{"molecule": "CC(C)CN(CC(C)C)C(=S)SSC(=S)N(CC(C)C)CC(C)C", "result": "13.4 µM"}

Fill blank: measured IC50 of the molecule CCCCN(CCCC)C(=S)SSC(=S)N(CCCC)CCCC is ____.
7.14 µM
